procedure details: qHTS assay to identify small molecule antagonists of the TGF-beta/Smad signaling pathway - cell viability counter screen (AID 1346824); note: nearly all actives have a fitted effect of over 50% in size
condition summary: SBE-bla HEK293T viability, CellTiter-Glo luminescence; series mostly up to 76.8 µM
Results filed as inconclusive are left out. The source made the active and inactive calls. Calls come from the whole dose curve; as a rule, active = well fitted cell-killing curve with a large enough effect in the repeat runs; inconclusive = weak or mixed curves; inactive = flat fitted curve, though single readings scatter.
measured quantity: viability change, negative = cytotoxic

Study these solved cases before continuing.
compound=CC/C=C\CCOC(=O)C(C)C value=inactive
compound=CC(C)(CO)[C@@H](O)C(=O)NCCC(=O)O value=inactive
compound=Cc1ccc(C=O)s1 value=inactive
compound=CCCCNCCCC value=inactive
compound=CCCCNc1ccc(C(=O)OCCN(CC)CC)cc1 value=inactive

Req: Identify viability change, negative = cytotoxic associated with the compound `C=CCc1cc(OC)c(O)c(C(=O)NCCO)c1`
Resp: inactive

Req: Identify viability change, negative = cytotoxic associated with the compound `O=C(O)[C@@H](O)[C@H](O)[C@H](O)[C@@H](O)C(=O)O`
Resp: inactive

Req: Identify viability change, negative = cytotoxic associated with the compound CCOC(=O)COc1ccc2c(c1)CC(NCC(O)c1cccc(Cl)c1)CC2 (configuration not stated)
Resp: inactive

Req: Identify viability change, negative = cytotoxic associated with the compound `NNS(=O)(=O)c1ccc(Oc2ccc(S(=O)(=O)NN)cc2)cc1`
Resp: inactive

Req: Identify viability change, negative = cytotoxic associated with the compound `CN(C)CCOc1ccccc1Cc1ccccc1`
Resp: inactive

Req: Identify viability change, negative = cytotoxic associated with the compound `O=C1N(c2ccccc2)c2ccccc2C1(Cc1ccncc1)Cc1ccncc1`
Resp: inactive

Req: Identify viability change, negative = cytotoxic associated with the compound CC(=O)N(CC(O)CN(C(C)=O)c1c(I)c(C(=O)NCC(O)CO)c(I)c(C(=O)NCC(O)CO)c1I)c1c(I)c(C(=O)NCC(O)CO)c(I)c(C(=O)NCC(O)CO)c1I (configuration not stated)
Resp: inactive
